// values below are reported viability at 1 µM
# Assay protocol: in vitro
# Type: cell-based
# Experimental setup: human, Cytotoxicity % viability

{"Given smiles": "C=C(C)[C@@H]1CC[C@]2(C(=O)N3CCC[C@@H]3c3nc(-c4cccnc4)no3)CC[C@]3(C)[C@H](CC[C@@H]4[C@@]5(C)CC[C@H](OC(=O)CC(C)(C)C(=O)O)C(C)(C)[C@@H]5CC[C@]43C)[C@@H]12", "Outcome measure": "viability at 1 µM", "Data value": "97%"}
{"Given smiles": "C=C(C)[C@@H]1CC[C@]2(C(=O)N3CCC[C@@H]3c3nc(-c4ccccc4)no3)CC[C@]3(C)[C@H](CC[C@@H]4[C@@]5(C)CC[C@H](OC(=O)CC(C)(C)CC(=O)O)C(C)(C)[C@@H]5CC[C@]43C)[C@@H]12", "Outcome measure": "viability at 1 µM", "Data value": "90%"}
{"Given smiles": "CC(C)(CC(=O)O)CC(=O)O[C@H]1CC[C@]2(C)[C@H]3CC[C@@H]4[C@H]5[C@H](C6(C)CC6)CC[C@]5(C(=O)N5CCC[C@H]5c5ncc(-c6ccccc6)[nH]5)CC[C@@]4(C)[C@]3(C)CC[C@H]2C1(C)C", "Outcome measure": "viability at 1 µM", "Data value": "74%"}

Which value of viability at 1 µM has been reported for `C=C(C)[C@@H]1CC[C@]2(C(=O)N3CCC[C@H]3c3ncc(-c4cccnc4)[nH]3)CC[C@]3(C)[C@H](CC[C@@H]4[C@@]5(C)CC[C@H](OC(=O)CC(C)(C)C(=O)O)C(C)(C)[C@@H]5CC[C@]43C)[C@@H]12` in the records?
82%

Any idea what its viability at 1 µM is? The compound is `C=C(C)[C@@H]1CC[C@]2(C(=O)N3CCC[C@H]3c3ncc(-c4ccccc4)[nH]3)CC[C@]3(C)[C@H](CC[C@@H]4[C@@]5(C)CC[C@H](OC(=O)[C@H]6C[C@@H](C(=O)O)C6(C)C)C(C)(C)[C@@H]5CC[C@]43C)[C@@H]12`
82%

Report viability at 1 µM for `CC(C)(CC(=O)O[C@H]1CC[C@]2(C)[C@H]3CC[C@@H]4[C@H]5[C@H](C6(C)CC6)CC[C@]5(C(=O)N5CCC[C@H]5c5ncc(-c6ccccc6)[nH]5)CC[C@@]4(C)[C@]3(C)CC[C@H]2C1(C)C)C(=O)O` please.
85%

// query viability at 1 µM value for entry `C=C(C)[C@@H]1CC[C@]2(C(=O)N3CCC[C@H]3c3ncc(-c4cccnc4)[nH]3)CC[C@]3(C)[C@H](CC[C@@H]4[C@@]5(C)CC[C@H](OC(=O)CC(C)(C)CC(=O)O)C(C)(C)[C@@H]5CC[C@]43C)[C@@H]12`
80%

Query (compound): `C=C(C)[C@@H]1CC[C@]2(C(=O)N3CCC[C@H]3c3ncc(-c4ccccc4)[nH]3)CC[C@]3(C)[C@H](CC[C@@H]4[C@@]5(C)CC[C@H](OC(=O)CC(C)(C)CC(=O)O)C(C)(C)[C@@H]5CC[C@]43C)[C@@H]12` ; field requested: viability at 1 µM
100%

// returns reported viability at 1 µM for input `C=C(C)[C@@H]1CC[C@]2(C(=O)N3CCC[C@H]3c3ncc(-c4ccccc4)[nH]3)CC[C@]3(C)[C@H](CC[C@@H]4[C@@]5(C)CC[C@H](OC(=O)CC(C)(C)C(=O)O)C(C)(C)[C@@H]5CC[C@]43C)[C@@H]12`
96%

I'd like to know its viability at 1 µM. The compound in question is `CC(C)(CC(=O)O[C@H]1CC[C@]2(C)[C@H]3CC[C@@H]4[C@H]5[C@H](C6(C)CC6)CC[C@]5(C(=O)N5CCC[C@@H]5c5nc(-c6ccccc6)no5)CC[C@@]4(C)[C@]3(C)CC[C@H]2C1(C)C)C(=O)O`
91%
